Note to self: these compounds have IC50 reported for PIK3CB (Human) (UniProt P42338) in various publications.

Use these answered entries as a reference point.
1. Cc1nc2c(-c3nnc[nH]3)cc(-c3ccnc(Cl)c3)cc2n1-c1ccnc2c(F)ccc(F)c12
0.007 µM
2. Nc1nc2cc(-c3nc4cc(-c5cccnc5)cnc4s3)ccc2o1
> 10 µM
3. Nc1nc2cc(-c3ccc4ncc(C(=O)NCCN5CCCC5)n4c3)ccc2o1
< 10 µM
4. Cc1cccc(C)c1-n1c(CNc2ncnc3[nH]cnc23)cc2cccc(C)c2c1=O
> 10 µM
5. Cc1cccc2cc(Cn3nc(C#C[C@@H](C)O)c4c(N)ncnc43)n(-c3ccccc3F)c(=O)c12
> 10 µM

Known value: PIK3CB (Human) (UniProt P42338) IC50 of the compound Nc1nc2cc(-c3ccc4ncc(C(=O)N5CCC(N6CC(F)(F)C6)C5)n4c3)ccc2o1 (centres unmarked) equals > 10 µM

// IC50 (PIK3CB (Human) (UniProt P42338)) for `Cc1cccc2cc(Cn3nc(-c4ccc5oc(N)nc5c4)c4c(N)ncnc43)n(C3CC3)c(=O)c12` = < 1 µM

The observed IC50 for Cc1nc2c(-c3nnc[nH]3)cc(-c3ccnc(C#N)c3)cc2n1-c1ccnc2cccc(Cl)c12 (single isomer, unassigned) when tested with PIK3CB (Human) (UniProt P42338) stands at 0.78 µM
